biological target: RXRβ (Mus musculus, UniProt P28704); construct: expressed in transfected cells; assay: holoreceptor transactivation assay, RXRβ; type: cell-based; details: relative to 10^-6 M cyclopropyl penta-2,4-dienoic acid reference, read-out: % efficacy, RXRβ transactivation
Sequence (P28704 whole entry): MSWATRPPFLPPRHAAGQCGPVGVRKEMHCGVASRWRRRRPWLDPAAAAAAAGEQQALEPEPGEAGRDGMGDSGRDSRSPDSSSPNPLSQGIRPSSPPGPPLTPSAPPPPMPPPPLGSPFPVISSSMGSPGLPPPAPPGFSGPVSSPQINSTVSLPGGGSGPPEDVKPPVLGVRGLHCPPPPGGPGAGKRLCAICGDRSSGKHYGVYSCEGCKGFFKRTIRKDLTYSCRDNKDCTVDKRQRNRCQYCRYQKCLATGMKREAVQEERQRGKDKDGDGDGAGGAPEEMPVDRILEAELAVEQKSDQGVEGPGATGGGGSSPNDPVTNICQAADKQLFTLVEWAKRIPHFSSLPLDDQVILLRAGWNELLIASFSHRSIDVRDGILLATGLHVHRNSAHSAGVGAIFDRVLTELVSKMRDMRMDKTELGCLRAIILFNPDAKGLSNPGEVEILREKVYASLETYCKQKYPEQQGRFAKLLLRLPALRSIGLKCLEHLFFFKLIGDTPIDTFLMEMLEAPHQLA
Property label: Emax (%)

Examples from the recorded data:
## Input Form field: reported Emax of `Cc1cc2c(cc1N(C)c1ccc(C(=O)O)cc1)N(C(C)C)CCC2(C)C`
## Output 119

## Input Data request, read-out Emax, for `CC(C)N1CCC(C)(C)c2ccc(N(CC3CC3)c3ccc(C(=O)O)cc3)cc21`
## Output 93

[1] CCN(c1ccc(C(=O)O)cc1)c1cc2c(cc1C)N(C(C)C)CCC2(C)C
[2] Cc1cc2c(cc1Nc1ccc(C(=O)O)cc1)N(C(C)C)CCC2(C)C
[3] CCN(c1ccc(C(=O)O)cc1)c1ccc2c(c1)C(C)(C)CC(=O)N2C(C)C
## Input Sort low-to-high on Emax, please. Put the labels in the requested order and write them down.
## Output 3, 1, 2
(3: 40%, 1: 70%, 2: 104%)
